Target: T1, CD81 (UniProt P60033 1-236, limits assumed)
T1 construct: whole, on cells; also called CD81 receptor
T1 sequence (looked up): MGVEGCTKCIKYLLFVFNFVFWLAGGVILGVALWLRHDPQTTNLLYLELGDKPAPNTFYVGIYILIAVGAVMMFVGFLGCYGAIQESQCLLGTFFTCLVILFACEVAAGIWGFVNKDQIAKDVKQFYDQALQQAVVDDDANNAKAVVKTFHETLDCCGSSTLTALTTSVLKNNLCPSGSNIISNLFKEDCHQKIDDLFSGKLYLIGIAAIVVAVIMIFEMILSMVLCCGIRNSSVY
Experiment: cell ELISA;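 note: antibody binding to HuH7 cells expressing CD81 versus a CD81-negative HuH7 control line, bound antibody detected by secondary reagent, absorbance at 450 nm with 620 nm reference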
PARAMETER: ELISA data
// print number alone

Worked cases, answers included:
CD81K13 HC 03-hVH_1_69 / LC 1b-hVK_3_15 (antibody, V domains shown, human constant region) VH: QVQLVQSGAEVKKPGSSVKVSCKASGFNFKDSYLHWVRQAPGQGLEWMGRIDTGNGNVKYAQKFQGRVTITADESTSTAYMELSSLRSEDTAVYYCAPYGYGFHSWGQGTLVTVSS VL: EIVMTQSPATLSVSPGERATLSCRASENIYRTLAWYQQKPGQAPRLLIYGATTLADGIPARFSGSGSGTEFTLTISSLQSEDFAVYYCQHFWGTPWTFGQGTKVEIK; 0.403
CD81K13 HC 01-hVH_1_f / LC 04-hVK_1_9 (antibody, V domains shown, human constant region) VH: EVQLVQSGAEVKKPGATVKISCKVSGYTFTDSYMHWVQQAPGKGLEWMGRIDTGNGNVKFDPKFQGRVTITADTSTDTAYMELSSLRSEDTAVYYCAPYGYGFHSWGQGTLVTVSS VL: DIQLTQSPSFLSASVGDRVTITCRASENIYRTLAWYQQKPGKAPKLLIYAATTLASGVPSRFSGSGSGTEFTLTISSLQPEDFGTYYCQHFWGTPWTFGQGTKVEIK; 0.244

Read the next record carefully.
Query: Give its ELISA data value. Item: CD81K13 HC 5b-hVH_1_69-GA / LC 01-hVK_3_15 (antibody, V domains shown, human constant region) VH: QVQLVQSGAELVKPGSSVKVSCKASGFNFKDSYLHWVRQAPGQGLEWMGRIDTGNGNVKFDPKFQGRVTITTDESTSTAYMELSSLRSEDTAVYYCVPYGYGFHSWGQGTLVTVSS VL: EIVMTQSPATLSVSPGERATLSCRASENIYRTLAWYQQKPGQAPRLLIYGATTRATGIPARFSGSGSGTEFTLTISSLQSEDFGVYYCQHFWGTPWTFGQGTKVEIK
Response: 0.739
